// EC50 lookup, one value per entry
Biological target: T1, Mouse CTGF protein-His tag (mouse, UniProt P29268 26-348)
T1 construct: C-terminal His tag; also called mouse CTGF-his protein; mouse CTGF fusion protein
T1 sequence: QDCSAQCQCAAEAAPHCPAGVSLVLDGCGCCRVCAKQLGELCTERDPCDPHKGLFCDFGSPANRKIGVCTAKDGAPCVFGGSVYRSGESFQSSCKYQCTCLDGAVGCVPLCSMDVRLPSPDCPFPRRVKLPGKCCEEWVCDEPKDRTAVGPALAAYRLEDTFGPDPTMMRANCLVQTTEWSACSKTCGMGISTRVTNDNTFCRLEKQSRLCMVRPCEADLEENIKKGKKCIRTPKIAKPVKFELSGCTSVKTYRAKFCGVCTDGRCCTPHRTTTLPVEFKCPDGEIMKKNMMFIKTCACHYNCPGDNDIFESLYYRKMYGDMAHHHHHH
Assay: ELISA, plate coated with mouse CTGF-his
Could you give me the number in nM? Just the number is fine.

Example results:
Hu164-77wl (antibody, human IgG1, lambda, V domains shown) VH: EVQLQESGPGLVKPSQTLSLTCTVSGFSISTFGVHWIRQHPGKGLEWIGVIWRRGGTDYNAAFMSRVTISKDTSKNQVSLKLSSVTAADTAVYYCARDGGFDYWGQGTTVTVSS VL: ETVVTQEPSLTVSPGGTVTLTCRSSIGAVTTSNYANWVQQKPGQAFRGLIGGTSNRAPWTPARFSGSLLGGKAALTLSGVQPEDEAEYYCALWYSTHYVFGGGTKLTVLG | 0.058
Hu147-32wk (antibody, human IgG1, kappa, V domains shown) VH: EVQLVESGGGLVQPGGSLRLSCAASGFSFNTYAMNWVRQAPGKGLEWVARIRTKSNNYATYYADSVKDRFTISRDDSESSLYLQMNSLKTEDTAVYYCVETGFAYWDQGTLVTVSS VL: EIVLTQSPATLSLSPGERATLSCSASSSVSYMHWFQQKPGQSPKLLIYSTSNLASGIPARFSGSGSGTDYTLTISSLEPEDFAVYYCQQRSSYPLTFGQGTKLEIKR | 0.349
Hu147-11wk (antibody, human IgG1, kappa, V domains shown) VH: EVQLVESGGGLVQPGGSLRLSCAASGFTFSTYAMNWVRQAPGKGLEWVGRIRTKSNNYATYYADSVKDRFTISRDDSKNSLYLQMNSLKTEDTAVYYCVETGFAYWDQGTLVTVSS VL: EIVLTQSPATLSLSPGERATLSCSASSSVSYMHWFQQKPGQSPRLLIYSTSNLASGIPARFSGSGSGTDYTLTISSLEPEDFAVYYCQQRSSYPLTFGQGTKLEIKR | 0.228

Ask: Endpoint output: EC50 of Hu164-57wl (antibody, human IgG1, lambda, V domains shown) VH: EVTLKESGPVLVKPTETLTLTCTVSGFSLSTFGVHWIRQPPGKALEWLAVIWRRGGTDYNAAFMSRLTISKDTSKSQVVLTMTNMDPVDTATYYCARDGGFDYWGQGTTVTVSS VL: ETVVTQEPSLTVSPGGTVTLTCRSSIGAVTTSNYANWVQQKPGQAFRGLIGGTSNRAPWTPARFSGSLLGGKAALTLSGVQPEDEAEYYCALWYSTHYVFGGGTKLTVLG . Value?
Reply: 0.041
